Test system: DeltatarO mutant
Experiment: S. aureus survival, RN4220 and DeltatarO strains – OD600, teichoic acid synthesis inhibitors, primary screen (AID 463173)
Conditions: S. aureus RN4220 wild type/DeltatarO growth, OD600, 18 h, hits give low values, screened at 18.75 µg/mL (by protocol)
The whole screen tested about 52,000 compounds, of which about 4,300 (8.3%) were called active. For the sample, actives were picked, then their nearest neighbours and some compounds at random.
recorded endpoint: survival (%)
One number for each entry, in %.

Reference set, count: 5
COc1ccc2c(C)cc(SCC(=O)Nc3nsc(-c4ccccc4C)n3)nc2c1 ... 35
CCCN(CCC)S(=O)(=O)c1ccc(C(=O)Nc2cccc(-c3nc4ccccc4[nH]3)c2)cc1 ... 99
CC(=O)c1ccc(NC(=O)CSc2nc(=O)n(Cc3ccccn3)c3c2CCC3)cc1 ... 67
Cc1cccc(-c2nc3cc(NC(=O)c4ccc(OCC(C)C)cc4)ccc3o2)c1 ... 113
Cc1ccc(S(=O)(=O)CCc2nnc(NC(=O)CCCC(=O)Nc3cc(C)on3)s2)cc1 ... 104

Answer for every listed entry: what is its survival? The entries follow.
1. O=C(Nc1cc(Cl)ccc1O)c1nc2ncccn2n1
2. CCOC(=O)c1ccccc1NC(=O)CSc1ccc(-c2sc(C)nc2C)nn1
3. Cc1ccc(Cl)cc1NC(=O)Cn1c(=O)c(CNc2ccccc2)cc2cc3c(cc21)OCCO3

Return:
74
91
95

Please look at the items below and tell me survival for each one, in order.
1. Cc1nc(SCC(=O)Nc2nsc(-c3ccc(C(C)(C)C)cc3)n2)c2c3c(sc2n1)CCCC3
2. COc1ccc(Cl)cc1NC(=O)CSc1ccc(-c2sc(C)nc2C)nn1
3. C[C@H](NC(=O)OC(C)(C)C)c1nnc(SCc2ccc(Cl)cc2Cl)o1
4. CCCOc1ccc(C(=O)Nc2cccc(-c3nc4ccccc4[nH]3)c2)cc1

Return:
1: 78; 2: 105; 3: 54; 4: 28

Quick one: give me survival for each item below, same order please.
1. COc1cc(NC(=O)c2cc(Cl)c(OC)c(Cl)c2)ccc1NC(=O)c1cc2ccccc2o1
2. CCOc1cc(OCC)cc(C(=O)Nc2cccc(-c3nc4ccccc4[nH]3)c2)c1
3. Cc1nc(C)c(-c2ccc(SCC(=O)Nc3ccc(Br)cc3)nn2)s1

Return:
1. 82
2. 36
3. 101

For every listed record, write down its survival.
1. Cc1cccc(NC(=O)Nc2ccc(Br)cc2)n1
2. CC(C)COc1ccc(C(=O)Nc2cccc(-c3nc4ccccc4[nH]3)c2)cc1
3. COc1ccc2c(C)cc(SCC(=O)Nc3nsc(-c4ccc(C(C)(C)C)cc4)n3)nc2c1

Return:
1. 126
2. 43
3. 56

Hello, the source for this data is PubChem BioAssay AID463173, in case you need it.
